Reference for the values: patent US7511068B2

- TARGET_UNDER_TEST: CCR2 receptor (Homo sapiens, UniProt P41597)
- Sequence (P41597 1-360 isoform P41597-2): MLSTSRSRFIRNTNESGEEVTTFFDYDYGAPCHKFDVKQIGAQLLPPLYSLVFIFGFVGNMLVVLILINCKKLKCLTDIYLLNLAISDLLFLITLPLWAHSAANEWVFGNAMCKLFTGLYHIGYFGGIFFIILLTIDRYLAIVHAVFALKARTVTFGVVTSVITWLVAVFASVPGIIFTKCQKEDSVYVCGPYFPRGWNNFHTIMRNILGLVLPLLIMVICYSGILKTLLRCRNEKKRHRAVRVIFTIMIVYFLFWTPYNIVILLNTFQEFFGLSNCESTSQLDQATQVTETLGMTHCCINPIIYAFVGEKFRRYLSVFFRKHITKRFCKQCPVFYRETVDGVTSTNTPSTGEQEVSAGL
- ASSAY_TEXT: Inhibition of MCP-1 induced Ca-flux in human THP-1 cells
- MEASUREMENT_PARAMETERS: inhibition of specific MCP-1 (10^-7 M hMCP-1) induced Ca2+ flux in human THP-1 cells; pIC50 = -log IC50 (molar)
Recorded measurements of IC50, one per entry
Give the value in nM but do not write nM after it.

Solved entries (count: 5):
{"COMPOUND": "CCC(c1ccc(F)c(C(F)(F)F)c1)n1c(C(=O)NC)c[nH]c1=S (stereo not drawn)", "IC50 / nM": 2290}
{"COMPOUND": "CCC(c1ccc(C(F)(F)F)c(F)c1)n1c(C(=O)OC)cnc1S (stereo not drawn)", "IC50 / nM": 2000}
{"COMPOUND": "CCC(c1ccc(Cl)c(Cl)c1)n1c(C#N)c(C(=O)NC)[nH]c1=S (stereo not drawn)", "IC50 / nM": 257}
{"COMPOUND": "CCC(c1ccc(Cl)c(Cl)c1)n1c(S)nc(C(N)=O)c1C(=O)OC (stereo not drawn)", "IC50 / nM": 49.9}
{"COMPOUND": "CCC(c1ccc(Cl)c(Cl)c1)n1c(S)nc(CO)c1C(=O)OC (stereo not drawn)", "IC50 / nM": 153}

### Prompt Please look up its IC50: CCC(c1ccc(Br)c(Br)c1)n1c(C(N)=O)c(C(N)=O)[nH]c1=S (stereo not drawn)
### Response 168
